System: human APOE RNA
protocolDescription: Dose-dependent inhibition of human APOE RNA in differentiated SH-SY5Y cells, free uptake, 5 days (Example 5)
Format: cell-based
conditionNotes: 3,200 nM, 5 days (Table 13)
Strand notation (5' to 3'): a small letter for the sugar, then the base; units joined by * are phosphorothioate-linked, units joined directly phosphodiester-linked; [ ] holds rarer units or linkages, { } end groups; capitals alone tell only the bases. [ms] = mesyl phosphoramidate linkage; e = 2'-O-(2-methoxyethyl) (MOE); k = constrained ethyl (cEt); [5mC] = 5-methylcytosine; d = 2'-deoxy (DNA)
The entries below are paired with their reported APOE RNA (% UTC).
# output: bare number, implied unit % UTC

Sample answers from the record:
{"substance": "TezTeoGeoGksTdsGdzAdzAdzTds^mCdsTdsTdsTdsAdzTksTksAesAesAes^mCe (antisense eT[ms]eTeGkG*dT*dG[ms]dA[ms]dA[ms]dT*d[5mC]*dT*dT*dT*dA[ms]kT*kT*eA*eA*eA*e[5mC]) [Compound No. 1809814]", "studyTarget": "human APOE RNA", "APOE RNA (% UTC)": 39}
{"substance": "Aes^mCeoTeoTesGesGksTdsGdzAdzAdzTds^mCdsTdsTdsTdsAdzTksTksAesAe (eA*e[5mC]eTeT*eG*kG*dT*dG[ms]dA[ms]dA[ms]dT*d[5mC]*dT*dT*dT*dA[ms]kT*kT*eA*eA) [Compound No. 1757576]", "studyTarget": "human APOE RNA", "APOE RNA (% UTC)": 27}
{"substance": "Aks^mCeoTeoTesGesGksTdsGdzAdzAdzTds^mCdsTdsTdsTdsAdzTksTksAesAe (kA*e[5mC]eTeT*eG*kG*dT*dG[ms]dA[ms]dA[ms]dT*d[5mC]*dT*dT*dT*dA[ms]kT*kT*eA*eA) [Compound No. 1809635]", "studyTarget": "human APOE RNA", "APOE RNA (% UTC)": 28}

Now let's try a different one.
Ask: Fill in: APOE RNA (% UTC) of ^mCksTksTksGdzGdzTdzGdzAdzAdzTds^mCdsTdsTdsTdsAdsTdsTksAksAdzAk (antisense k[5mC]*kT*kT*dG[ms]dG[ms]dT[ms]dG[ms]dA[ms]dA[ms]dT*d[5mC]*dT*dT*dT*dA*dT*kT*kA*dA[ms]kA) [Compound No. 1785602] is ___
Reply: 32
